Below is a list of entries, each paired with its recorded pEC50 value.
# System name: pig TRPM8 (Sus scrofa, UniProt F1SM15)
# Construct: expressed in transfected cells; host or cells: CHO (pcDNA5/FRT/TO vector; hygromycin B and blasticidin selection)
# Sequence (F1SM15 1-1104): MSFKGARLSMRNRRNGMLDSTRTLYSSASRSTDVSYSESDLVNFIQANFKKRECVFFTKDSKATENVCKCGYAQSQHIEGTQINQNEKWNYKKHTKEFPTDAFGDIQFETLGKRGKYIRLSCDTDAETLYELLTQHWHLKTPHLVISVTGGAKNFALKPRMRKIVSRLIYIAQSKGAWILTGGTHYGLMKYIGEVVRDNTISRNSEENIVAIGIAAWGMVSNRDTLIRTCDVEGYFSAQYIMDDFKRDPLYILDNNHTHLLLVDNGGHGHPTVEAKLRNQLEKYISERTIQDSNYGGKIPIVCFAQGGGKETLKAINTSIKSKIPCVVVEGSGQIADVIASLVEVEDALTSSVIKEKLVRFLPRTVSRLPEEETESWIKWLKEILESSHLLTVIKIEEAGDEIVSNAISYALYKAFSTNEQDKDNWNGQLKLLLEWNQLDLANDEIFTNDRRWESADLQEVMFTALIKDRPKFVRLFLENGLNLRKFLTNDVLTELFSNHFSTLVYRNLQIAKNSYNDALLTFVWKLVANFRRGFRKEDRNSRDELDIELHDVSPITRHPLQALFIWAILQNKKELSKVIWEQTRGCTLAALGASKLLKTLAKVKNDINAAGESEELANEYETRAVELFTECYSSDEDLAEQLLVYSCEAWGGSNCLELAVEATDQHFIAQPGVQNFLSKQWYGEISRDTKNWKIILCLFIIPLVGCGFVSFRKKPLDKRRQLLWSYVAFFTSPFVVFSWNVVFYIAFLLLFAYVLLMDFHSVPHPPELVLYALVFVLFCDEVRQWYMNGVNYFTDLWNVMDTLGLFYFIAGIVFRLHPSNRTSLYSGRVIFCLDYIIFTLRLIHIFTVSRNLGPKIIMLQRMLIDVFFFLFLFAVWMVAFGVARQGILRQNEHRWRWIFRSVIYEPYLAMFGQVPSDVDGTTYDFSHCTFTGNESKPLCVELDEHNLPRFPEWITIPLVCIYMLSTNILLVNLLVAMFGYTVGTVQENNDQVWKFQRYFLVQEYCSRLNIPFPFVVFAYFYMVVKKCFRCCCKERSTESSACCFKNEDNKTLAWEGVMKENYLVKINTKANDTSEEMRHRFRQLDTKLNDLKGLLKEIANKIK
# Assay comment: In vitro pig TRPM8 automated patch-clamp assay (SyncroPatch 384PE, CHO cells)
# Format: cell-based
# Applied conditions: CHO cells expressing pig TRPM8, 28° C.
pEC50: −log10 of the molar value.
Measure: pEC50

Compound: CC(C)[C@@H]1CC[C@@H](C)C[C@@]1(O)C(=O)NCCc1ccc(O)cc1
Qualifier operator: =
Value: 5.63

Compound: COc1ccc(NC(=O)[C@]2(O)C[C@H](C)CC[C@H]2C(C)C)cc1
Qualifier operator: =
Value: 5.66

Compound: CC(C)[C@@H]1CC[C@@H](C)C[C@@]1(O)C(=O)NCC(=O)c1ccc(F)c(F)c1
Qualifier operator: =
Value: 6.29

Compound: COC(=O)COc1cccc(CCNC(=O)[C@]2(O)C[C@H](C)CC[C@H]2C(C)C)c1
Qualifier operator: =
Value: 5.41

Compound: CC(C)[C@@H]1CC[C@@H](C)C[C@@]1(O)C(=O)NCC(=O)c1ccccc1F
Qualifier operator: =
Value: 6.01

Compound: COC(=O)c1ccc(CCNC(=O)[C@]2(O)C[C@H](C)CC[C@H]2C(C)C)cc1
Qualifier operator: <
Value: 5.00

Compound: CC(C)[C@@H]1CC[C@@H](C)C[C@@]1(O)C(=O)NC[C@@H](N)c1ccccc1
Qualifier operator: =
Value: 7.15

Compound: CC(C)[C@@H]1CC[C@@H](C)C[C@@]1(O)C(=O)NCC1(c2ccccc2)COC1
Qualifier operator: =
Value: 5.50

Compound: CC(C)[C@@H]1CC[C@@H](C)C[C@@]1(O)C(=O)NCC(=O)NCc1ccccc1
Qualifier operator: <
Value: 5.00

Compound: CC(C)[C@@H]1CC[C@@H](C)C[C@@]1(O)C(=O)NC[C@@H](O)c1cccc(CO)c1
Qualifier operator: =
Value: 6.15

Compound: CC(C)[C@@H]1CC[C@@H](C)C[C@@]1(O)C(=O)NCC(NC(=O)CN)c1ccccc1 (single isomer, unassigned) [Example 183]
Qualifier operator: =
Value: 7.70

Compound: CC(C)[C@@H]1CC[C@@H](C)C[C@@]1(O)C(=O)NCC(NC(=O)[C@H](C)N)c1ccccc1 (single isomer, unassigned)
Qualifier operator: =
Value: 7.28

Compound: CC(C)[C@@H]1CC[C@@H](C)C[C@@]1(O)C(=O)NCC(F)c1ccccc1 (stereo partly shown)
Qualifier operator: =
Value: 6.32

Compound: CC(C)[C@@H]1CC[C@@H](C)C[C@@]1(O)C(=O)NC[C@H](O)c1cccc(CO)c1
Qualifier operator: =
Value: 5.40

Compound: CC(C)[C@@H]1CC[C@@H](C)C[C@@]1(O)C(=O)NCCc1cccc(CO)c1
Qualifier operator: =
Value: 5.82

Compound: CC(C)[C@@H]1CC[C@@H](C)C[C@@]1(O)C(=O)NCCc1ccccc1CO
Qualifier operator: =
Value: 5.48

###

# System name: pig TRPM8 (Sus scrofa, UniProt F1SM15)
# Construct: expressed in transfected cells; host or cells: CHO (pcDNA5/FRT/TO vector; hygromycin B and blasticidin selection)
# Assay comment: In vitro pig TRPM8 fluorescence calcium flux assay (recombinant CHO cells, Fluo4-AM, FDSS6000)
# Assay type: cell-based
# Applied conditions: recombinant CHO cells expressing pig TRPM8; menthol-related EC50, normalized to 100 μM menthol
pEC50: −log10 of the molar value. Counter-ions that a name gives are not always drawn.
// map pEC50 onto a label; ranges class A (below 7), class B (7 to below 8), class C (8 or more)

Molecule: COC(=O)c1ccccc1CCNC(=O)[C@]1(O)C[C@H](C)CC[C@H]1C(C)C
System name: pig TRPM8 (Sus scrofa, UniProt F1SM15)
Class name: class B
--
Molecule: CC(C)[C@@H]1CC[C@@H](C)C[C@@]1(O)C(=O)NCC(C(=O)OCCN)c1ccccc1 (stereo partly shown) [Example 71, hydrochloride]
System name: pig TRPM8 (Sus scrofa, UniProt F1SM15)
Class name: class C
--
Molecule: CC(C)[C@@H]1CC[C@@H](C)C[C@@]1(O)C(=O)NCCc1nc2ccccc2[nH]1
System name: pig TRPM8 (Sus scrofa, UniProt F1SM15)
Class name: class A
--
Molecule: Cc1cccc(C(=O)CNC(=O)[C@]2(O)C[C@H](C)CC[C@H]2C(C)C)c1
System name: pig TRPM8 (Sus scrofa, UniProt F1SM15)
Class name: class C
--
Molecule: CC(C)[C@@H]1CC[C@@H](C)C[C@@]1(O)C(=O)N[C@@H](CO)Cc1ccccc1
System name: pig TRPM8 (Sus scrofa, UniProt F1SM15)
Class name: class A
--
Molecule: COc1cc(CCNC(=O)[C@]2(O)C[C@H](C)CC[C@H]2C(C)C)cc(OC)c1
System name: pig TRPM8 (Sus scrofa, UniProt F1SM15)
Class name: class A
--
Molecule: CC(C)[C@@H]1CC[C@@H](C)C[C@@]1(O)C(=O)NCC(=O)c1c[nH]c2ccccc12
System name: pig TRPM8 (Sus scrofa, UniProt F1SM15)
Class name: class C
--
Molecule: COc1cc(CCNC(=O)[C@]2(O)C[C@H](C)CC[C@H]2C(C)C)cc(OC)c1O
System name: pig TRPM8 (Sus scrofa, UniProt F1SM15)
Class name: class A
--
Molecule: COc1ccc2c(c1)OCC2CNC(=O)[C@]1(O)C[C@H](C)CC[C@H]1C(C)C (stereo partly shown)
System name: pig TRPM8 (Sus scrofa, UniProt F1SM15)
Class name: class B
--
Molecule: CC(C)[C@@H]1CC[C@@H](C)C[C@@]1(O)C(=O)NC[C@@H](N)c1ccccc1
System name: pig TRPM8 (Sus scrofa, UniProt F1SM15)
Class name: class C
--
Molecule: CC(C)[C@@H]1CC[C@@H](C)C[C@@]1(O)C(=O)NCC(O)(c1ccccc1)C(F)(F)F (single isomer, unassigned) [Example 82]
System name: pig TRPM8 (Sus scrofa, UniProt F1SM15)
Class name: class A
--
Molecule: CC(C)[C@@H]1CC[C@@H](C)C[C@@]1(O)C(=O)NC[C@@H](NC(=O)[C@H](C)N)c1ccccc1
System name: pig TRPM8 (Sus scrofa, UniProt F1SM15)
Class name: class C
--
Molecule: COC(=O)C(CNC(=O)[C@]1(O)C[C@H](C)CC[C@H]1C(C)C)c1ccccc1 (stereo partly shown)
System name: pig TRPM8 (Sus scrofa, UniProt F1SM15)
Class name: class B
